Molecular target: Corticotropin-releasing factor-binding protein (Homo sapiens, UniProt P24387)
Sequence (P24387 whole entry): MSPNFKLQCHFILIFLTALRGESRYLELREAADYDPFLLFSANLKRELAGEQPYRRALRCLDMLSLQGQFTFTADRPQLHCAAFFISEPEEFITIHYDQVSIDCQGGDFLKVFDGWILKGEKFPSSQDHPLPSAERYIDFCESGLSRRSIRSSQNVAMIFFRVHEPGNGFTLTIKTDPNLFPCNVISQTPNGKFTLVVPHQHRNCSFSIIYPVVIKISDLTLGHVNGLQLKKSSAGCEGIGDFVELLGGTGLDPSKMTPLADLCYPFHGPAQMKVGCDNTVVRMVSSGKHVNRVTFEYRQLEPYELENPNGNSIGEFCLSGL
Assay: activators of CRF receptor 2 with binding protein – uHTS hits, confirmation (AID 602473)
Would you kindly list EC50 for each of these compounds?

>>> df
                                   compound  parameter_measured      val
0  O=NC1C(=O)N(Cc2c(Cl)cccc2Cl)c2ccccc21 (centres undefined)                EC50  4.67 µM
1       Cc1ccc(-n2c(O)cc(=O)[nH]c2=O)c(C)c1                EC50  > 53 µM
2  O=c1c(CN=Nc2ccccc2)c(Sc2nnnn2-c2ccccc2)nc2ccccn12                EC50  10.1 µM
3  Cc1[nH]c2ccccc2c1/C=C1\N=C(c2ccc(C(F)(F)F)cc2)OC1=O                EC50  10.2 µM
4        Cc1ccc2oc(=O)c(CC(=O)c3ccco3)nc2c1                EC50  4.74 µM
5  CCOC(=O)C1C(CCc2ccccc2)=NC(=O)NC1c1cccc([N+](=O)[O-])c1 (centres undefined)                EC50  > 53 µM
6  N#CC(C1=NCCC1)c1nc2ccccc2c(=O)[nH]1 (centres undefined)                EC50  > 53 µM
7  Cc1ccc(S(=O)(=O)N(CC(=O)NNC2=c3ccccc3=NC2=O)c2ccc(C)c(C)c2)cc1                EC50  > 53 µM

Dear colleague, could you send me EC50 for each of the items below? Thanks.
1. Cc1cc(C)cc(NC(=O)c2ccc(-n3c(O)c4c(c3O)CCCC4)cc2)c1
2. O=C(Cc1nc2ccccc2n(-c2ccccc2)c1=O)c1ccc(F)cc1
3. Cc1c(N=C2C(=O)N(c3ccccc3Cl)C(=O)C2Cl)c(=O)n(-c2ccccc2)n1C (centres undefined)
4. COc1cc(/C=C2\CCC(C)C3=C(c4cc(OC)c(OC)c(OC)c4)C(C#N)C(=N)OC32)cc(OC)c1OC (centres undefined)
5. COc1cccc(C(=O)Cc2nc3ccc(C(=O)NCCc4ccc(Cl)cc4)cc3[nH]c2=O)c1

1: > 53 µM; 2: 7.18 µM; 3: > 53 µM; 4: > 53 µM; 5: 5.02 µM

All values here come from BindingDB's records for doi:10.7270/Q2VX0F3D.
